// provenance: patent US9382426B2

# method-notes: Evaluation of light resistance of color filters, xenon tester
# Format: physicochemical
# condition-set: color filter containing the compound; xenon tester 50 hours, 0.39 W/m^2 at 340 nm, 40° C., relative humidity 60%
measured-endpoint: Light resistance ΔE (color difference)
Answer with the value's number alone.

molecule: CCCCC(CC)CN(CC(CC)CCCC)C(=O)c1ccccc1/N=N/c1c(C)c(C#N)c(=O)n(N)c1O (stereo not shown)
measured-endpoint: Light resistance ΔE (color difference)
recorded-value: 2.99

I have this molecule here, CCCCC(CC)CN(CC(CC)CCCC)C(=O)c1cccc(/N=N/c2c(C)c(C#N)c(=O)n(NC(=O)C(CC)CCCC)c2O)c1 (stereo not shown) , and I need its recorded Light resistance ΔE (color difference).
4.21

# Light resistance ΔE (color difference) lookup, item Cc1c(/N=N/c2ccccc2)c(O)n(N)c(=O)c1C#N [Comparative Compound (1), reference compound]
12.8

Name the recorded Light resistance ΔE (color difference) for CCCCC(CC)CN(CC(CC)CCCC)C(=O)c1ccc(/N=N/c2c(-c3ccccc3)c(C#N)c(=O)n(NC(=O)c3ccccc3)c2O)cc1 (stereo not shown) .
2.68

* * *

# method-notes: Evaluation of light resistance of thermal transfer recording sheets, xenon tester
# Type: physicochemical
# condition-set: thermal transfer recording sheet containing the compound; xenon tester 50 hours, 0.39 W/m^2 at 340 nm, 40° C., relative humidity 60%
Listed molecules paired with reported Light resistance ΔE (color difference)
// keep it numeric: no unit symbol after the value

Reference set, count: 3
molecule: CCCCC(CC)CN(CC(CC)CCCC)C(=O)c1cccc(/N=N/c2c(C)c(C#N)c(=O)n(N)c2O)c1 (stereo not shown)
Light resistance ΔE (color difference): 2.76

molecule: CCCCC(CC)CN(CC(CC)CCCC)S(=O)(=O)c1ccc(/N=N/c2c(C)c(C#N)c(=O)n(N)c2O)cc1 (stereo not shown)
Light resistance ΔE (color difference): 2.54

molecule: CCCCC(CC)CN(CC(CC)CCCC)C(=O)c1ccc(/N=N/c2c(C)c(C#N)c(=O)n(N3CCCCC3)c2O)cc1 (stereo not shown)
Light resistance ΔE (color difference): 2.32

Now take the following molecule into account.
Quick one: Light resistance ΔE (color difference) for Cc1c(/N=N/c2ccccc2)c(O)n(N)c(=O)c1C#N [Comparative Compound (1), reference compound] ?
15.1

* * *

# method-notes: Evaluation of light resistance of thermal transfer recording sheets, xenon tester
# Assay type: physicochemical
# condition-set: thermal transfer recording sheet containing the compound; xenon tester 50 hours, 0.39 W/m^2 at 340 nm, 40° C., relative humidity 60%

compound: CCCCC(CC)CN(CC(CC)CCCC)C(=O)c1cccc(/N=N/c2c(C)c(C#N)c(=O)n(N(C)C)c2O)c1 (stereo not drawn)
Light resistance ΔE, evaluation grade: A (A: ΔE<3.50)

compound: CCCCC(CC)CN(CC(CC)CCCC)C(=O)c1cccc(/N=N/c2c(C)c(C#N)c(=O)n(N)c2O)c1 (stereo not drawn)
Light resistance ΔE, evaluation grade: A (A: ΔE<3.50)

compound: CCCCC(CC)CN(CC(CC)CCCC)S(=O)(=O)c1ccc(/N=N/c2c(C)c(C#N)c(=O)n(N(C)C(=O)C(C)(C)C)c2O)cc1 (stereo not drawn)
Light resistance ΔE, evaluation grade: A (A: ΔE<3.50)

* * *

# method-notes: Light resistance evaluation of compound: ink image samples on paper, xenon tester
# Format: physicochemical
# condition-set: ink image sample on paper; xenon tester 10 hours, 0.39 W/m^2 at 340 nm, 40° C., relative humidity 60%
# Procedure: Ink (1) of the present invention was prepared by mixing 5 parts of Compound (1) as the water-insoluble coloring compound of the present invention, 350 parts of toluene, 350 parts of ethyl acetate, and 300 parts of 2-butanone. Inks (1), (2), (4), (8), (13), (15), (23), (28), (29), and (30) and Comparative Inks (1) and (2) were each applied onto paper for contrast ratio measurement by bar coating (Bar No. 10) and were air-dried overnight to produce image samples. […]
measured-endpoint: Light resistance ΔE, evaluation grade

Example entries and their recorded answers appear below.
compound: CCCCC(CC)CN(CC(CC)CCCC)C(=O)c1ccc(/N=N/c2c(-c3ccccc3)c(C#N)c(=O)n(NC(=O)c3ccccc3)c2O)cc1 (stereo not shown)
measured-endpoint: Light resistance ΔE, evaluation grade
recorded-value: A (A: ΔE<3.50)
//
compound: CCCCC(CC)CN(CC(CC)CCCC)S(=O)(=O)c1ccc(/N=N/c2c(C)c(C#N)c(=O)n(N(C)C(=O)C(C)(C)C)c2O)cc1 (stereo not shown)
measured-endpoint: Light resistance ΔE, evaluation grade
recorded-value: B (B: 3.50≦ΔE<5.00)
//
compound: CCCCC(CC)CN(CC(CC)CCCC)C(=O)c1cccc(/N=N/c2c(C)c(C#N)c(=O)n(N(C)C)c2O)c1 (stereo not shown)
measured-endpoint: Light resistance ΔE, evaluation grade
recorded-value: B (B: 3.50≦ΔE<5.00)
//
compound: CCCCC(CC)CN(CC(CC)CCCC)C(=O)c1cccc(/N=N/c2c(C)c(C#N)c(=O)n(NC(=O)C(CC)CCCC)c2O)c1 (stereo not shown)
measured-endpoint: Light resistance ΔE, evaluation grade
recorded-value: B (B: 3.50≦ΔE<5.00)
//
compound: CCCCC(CC)CN(CC(CC)CCCC)C(=O)c1ccc(/N=N/c2c(C)c(C#N)c(=O)n(N(CCCC)CCCC)c2O)cc1 (stereo not shown)
measured-endpoint: Light resistance ΔE, evaluation grade
recorded-value: A (A: ΔE<3.50)

Next:
Using the record for CCCCC(CC)CN(CC(CC)CCCC)C(=O)c1ccccc1/N=N/c1c(C)c(C#N)c(=O)n(N)c1O (stereo not shown) , report its Light resistance ΔE, evaluation grade.
B (B: 3.50≦ΔE<5.00)
